Exercise: for every item that follows, state its recorded LC retention time.
Experiment: Thermo Scientific Acclaim RSLC 120 C18, 100 × 2.1 mm, 2.2 µm, 30 °C; A: 90% water + 10% methanol + 0.01% formic acid + 5 mM ammonium formate; B: methanol + 0.01% formic acid + 5 mM ammonium formate; gradient (min/%B) 0.1/1 3/39 14/99.9 16/99.9
Settings: stereoisomer not certain

[
  {
    "molecule": "CSc1ccc(C(=O)c2[nH]c(=O)[nH]c2C)cc1",
    "LC retention time": "6.67 min"
  },
  {
    "molecule": "CC(=O)Nc1ccc(OCC(O)CNC(C)C)cc1 (stereo not drawn)",
    "LC retention time": "3.34 min"
  },
  {
    "molecule": "CC1(C)CC1C(=O)NC(=CCCCCSCC(N)C(=O)O)C(=O)O (stereo not drawn)",
    "LC retention time": "4.88 min"
  },
  {
    "molecule": "CC(N)Cc1ccc2occc2c1 (stereo not drawn)",
    "LC retention time": "4.79 min"
  },
  {
    "molecule": "COC(=O)c1ccccc1C(=O)OC",
    "LC retention time": "6.63 min"
  },
  {
    "molecule": "COc1ccc(C(O)(c2cncnc2)C2CC2)cc1 (stereo not drawn)",
    "LC retention time": "7.15 min"
  },
  {
    "molecule": "Nc1nc2ccccc2[nH]1",
    "LC retention time": "3.74 min"
  },
  {
    "molecule": "N=C(N)c1ccccc1",
    "LC retention time": "2.63 min"
  },
  {
    "molecule": "COc1ccc2c(c1O)-c1c3c(cc4c1C(C2)N(C)CC4)OCO3 (stereo not drawn)",
    "LC retention time": "4.36 min"
  },
  {
    "molecule": "COC(=O)Nc1nc2ccc(S(=O)c3ccccc3)cc2[nH]1 (stereo not drawn)",
    "LC retention time": "6.66 min"
  }
]

For the 3 molecules below, give their LC retention time values.
1. c1ccc(C2CN3CCSC3=N2)cc1 (stereo not drawn)
2. CC(=O)Oc1cccc2[nH]cc(CCN(C(C)C)C(C)C)c12
3. COCCCOc1ccnc(CS(=O)c2nc3ccccc3[nH]2)c1C (stereo not drawn)

1. 3.68 min
2. 4.88 min
3. 7.52 min

---

Experiment: Thermo Scientific Acclaim RSLC 120 C18, 100 × 2.1 mm, 2.2 µm, 30 °C; A: 90% water + 10% methanol + 0.01% formic acid + 5 mM ammonium formate; B: methanol + 0.01% formic acid + 5 mM ammonium formate; gradient (min/%B) 0.1/1 3/39 14/99.9 16/99.9
Conditions: stereoisomer not certain
Exercise: for every item that follows, state its recorded LC retention time.
One number for each entry, in min.

[
  {
    "compound": "CC(=O)CC(c1ccccc1)c1c(O)c2ccccc2oc1=O (stereo unspecified)",
    "LC retention time (min)": 9.08
  }
]

For the 4 compounds below, give their LC retention time values.
1. CNCC(O)c1cccc(NS(C)(=O)=O)c1 (stereo unspecified)
2. COC(=O)C(C)N(C(=O)Cc1ccccc1)c1c(C)cccc1C (stereo unspecified)
3. CCCCCC(=O)c1ccc(O)cc1O
4. CN(CC=Cc1ccccc1)Cc1cccc2ccccc12

1. 2.54
2. 10.9
3. 10.4
4. 8.52

---

Experiment: Thermo Scientific Acclaim RSLC 120 C18, 100 × 2.1 mm, 2.2 µm, 30 °C; A: 90% water + 10% methanol + 0.01% formic acid + 5 mM ammonium formate; B: methanol + 0.01% formic acid + 5 mM ammonium formate; gradient (min/%B) 0.1/1 3/39 14/99.9 16/99.9
Settings: stereoisomer not certain
quantity_kind: LC retention time (min)
Answers are plain numbers, in min.

For the 3 compounds below, give their LC retention time values.
1. CNC(=O)Oc1cccc2c1OC(C)(C)C2
2. NC1CC1c1ccccc1 (stereo unspecified)
3. Nc1ccc(N=Nc2ccccc2)c(N)n1

1: 7.01; 2: 4.27; 3: 8.49

For the 3 compounds below, give their LC retention time values.
1. CCOC(=O)c1cn2nc(OP(=S)(OCC)OCC)cc2nc1C
2. CC12C=CC(=O)C=C1CCC1C2C(=O)CC2(C)C1CCC2(O)C(=O)CO (stereo unspecified)
3. CON=C(C(=O)NC1C(=O)N2C(C(=O)[O-])=C(C[n+]3cccc4c3CCCC4)CSC12)c1csc(N)n1 (stereo unspecified)

11.4
7.85
3.76

---

Test: Thermo Scientific Acclaim RSLC 120 C18, 100 × 2.1 mm, 2.2 µm, 30 °C; A: 90% water + 10% methanol + 0.01% formic acid + 5 mM ammonium formate; B: methanol + 0.01% formic acid + 5 mM ammonium formate; gradient (min/%B) 0.1/1 3/39 14/99.9 16/99.9
Settings: stereoisomer not certain
Exercise: for every item that follows, state its recorded LC retention time.
One number for each entry, in min.

Consider the worked cases shown below.
[
  {
    "molecule": "CC(=O)c1ccc2c(c1)N(CCCN(C)C)c1ccccc1S2",
    "quantity_kind": "LC retention time",
    "reading": 7.47
  },
  {
    "molecule": "COC(=O)C1=C(C)NC(C)=C(C(=O)OCCN(C)Cc2ccccc2)C1c1cccc([N+](=O)[O-])c1 (stereo unspecified)",
    "quantity_kind": "LC retention time",
    "reading": 8.39
  },
  {
    "molecule": "CC(Cc1ccc(C(C)(C)C)cc1)CN1CC(C)OC(C)C1 (stereo unspecified)",
    "quantity_kind": "LC retention time",
    "reading": 10.7
  },
  {
    "molecule": "O=C1OC(c2ccc(O)cc2)(c2ccc(O)cc2)c2ccccc21",
    "quantity_kind": "LC retention time",
    "reading": 7.06
  },
  {
    "molecule": "CC12CCC(=O)C=C1CCC1C2CCC2(C)C(C(=O)CO)CCC12 (stereo unspecified)",
    "quantity_kind": "LC retention time",
    "reading": 13.7
  },
  {
    "molecule": "CC(CN1c2ccccc2Sc2cccnc21)N(C)C (stereo unspecified)",
    "quantity_kind": "LC retention time",
    "reading": 6.47
  },
  {
    "molecule": "CN(C)CCCn1c2c(c3ccccc31)CCCCCC2",
    "quantity_kind": "LC retention time",
    "reading": 9.26
  },
  {
    "molecule": "NC(=O)c1ccccc1Oc1ccccc1",
    "quantity_kind": "LC retention time",
    "reading": 7.79
  }
]

For the 3 molecules below, give their LC retention time values.
1. CCOC(=O)C1CC(=O)C(=C(O)C2CC2)C(=O)C1 (stereo unspecified)
2. CNC(=O)C(C)SCCSP(=O)(OC)OC (stereo unspecified)
3. CC1CCC2(OC1)OC1CC3C4CC=C5CC(O)CCC5(C)C4CCC3(C)C1C2C (stereo unspecified)

1. 8.45
2. 5.02
3. 15.1

---

Assay: Thermo Scientific Acclaim RSLC 120 C18, 100 × 2.1 mm, 2.2 µm, 30 °C; A: 90% water + 10% methanol + 0.01% formic acid + 5 mM ammonium formate; B: methanol + 0.01% formic acid + 5 mM ammonium formate; gradient (min/%B) 0.1/1 3/39 14/99.9 16/99.9
Details: stereoisomer not certain
quantity_kind: LC retention time (min)
Numbers only, in min.

For the 3 compounds below, give their LC retention time values.
1. O=C(c1ccccc1)c1ccc2n1CCC2C(=O)O (stereo not drawn)
2. OCc1cc(C(O)CNCCCCCCOCCCCc2ccccc2)ccc1O (stereo not drawn)
3. c1ccc2c(c1)Cc1ccccc1N1CCNCC21 (stereo not drawn)

6.94
8.83
6.86

---

Exercise: for every item that follows, state its recorded LC retention time.
Assay: Thermo Scientific Acclaim RSLC 120 C18, 100 × 2.1 mm, 2.2 µm, 30 °C; A: 90% water + 10% methanol + 0.01% formic acid + 5 mM ammonium formate; B: methanol + 0.01% formic acid + 5 mM ammonium formate; gradient (min/%B) 0.1/1 3/39 14/99.9 16/99.9
Conditions: stereoisomer not certain

Consider the worked cases shown below.
[
  {
    "molecule": "CC(C)(C)NCC(O)COc1ccc(NC(=O)NC2CCCCC2)cc1 (stereo unspecified)",
    "LC retention time": "6.58 min"
  },
  {
    "molecule": "CC=C1CC(C)C(C)(O)C(=O)OCC2=CCN3CCC(OC1=O)C23 (stereo unspecified)",
    "LC retention time": "4.62 min"
  },
  {
    "molecule": "CN(C)CCC=C1c2ccccc2CCc2ccccc21",
    "LC retention time": "8.23 min"
  },
  {
    "molecule": "COCCCOc1cc(CC(CC(N)C(O)CC(C(=O)NCC(C)(C)C(N)=O)C(C)C)C(C)C)ccc1OC (stereo unspecified)",
    "LC retention time": "8.87 min"
  },
  {
    "molecule": "O=C(OC1CC2CCC(C1)[N+]21CCCC1)C(O)(c1ccccc1)c1ccccc1 (stereo unspecified)",
    "LC retention time": "5.72 min"
  },
  {
    "molecule": "CC(C)N(Cc1ccccc1)C(=O)C(C)(C)C",
    "LC retention time": "10.2 min"
  }
]

For the 5 molecules below, give their LC retention time values.
1. COCC(=O)N(c1c(C)cccc1C)C(C)C(=O)OC (stereo unspecified)
2. CN(C)C(=O)SCCCCOc1ccccc1
3. CCCCOc1ccc(CC(=O)NO)cc1
4. CC(C)N(CCc1c[nH]c2ccccc12)C(C)C
5. CC(CN(C)C)CN1c2ccccc2S(=O)(=O)c2ccccc21 (stereo unspecified)

["8.22 min", "10.7 min", "7.83 min", "4.87 min", "5.34 min"]
